test system: Ovarian Cancer cell lines; assay: NCI in vitro anticancer screen (SRB), ovarian cancer subpanel; conditions: 48 hours exposure; average percent growth over the cell lines; note: test concentration or dose not given here
What Activity (Average PG for highest dose tested) Ovarian Cancer was measured for each of the following?
Response body: numeric value in %, unit text excluded.

Given item `COC(=O)c1nc(-c2ccc3c(n2)C(=O)C(N)=C(Cl)C3=O)c2[nH]c3ccccc3c2c1C` , the value recorded as its Activity (Average PG for highest dose tested) Ovarian Cancer is −39.3

Given item `CCCC(=O)NC1=CC(=O)c2ccc(C)nc2C1=O` , the value recorded as its Activity (Average PG for highest dose tested) Ovarian Cancer is −86.7

Given item `CC(=O)NC1=CC(=O)c2ccc(-c3nc(C(=O)OCCC(C)C)cc4c3[nH]c3ccccc34)nc2C1=O` , the value recorded as its Activity (Average PG for highest dose tested) Ovarian Cancer is −42.2

---

system: K/1 = ras^K Transformed NRKE Cells; conditions: rat, 5 days
READOUT: CC50 (nM)
Response body: numeric value in nM, unit text excluded.

Given item COC(=O)c1nc(-c2ccc3c(n2)C(=O)C(NC(C)=O)=CC3=O)c2[nH]c3ccccc3c2c1C [Compound 1, 7-N-Acetyllavendamycin Methyl Ester] , the value recorded as its CC50 is 100

---

READOUT: CC50 (nM)
Response body: numeric value in nM, unit text excluded.

Given the molecule `CC(=O)NC1=CC(=O)c2ccc(-c3nc(C(N)=O)cc4c3[nH]c3ccccc34)nc2C1=O` and test system 3LL = Lewis Lung Carcinoma Cells, the measured CC50 is 210

---

What CC50 was measured for each of the following?
Response body: numeric value in µM, unit text excluded.

Given the compound `CC(=O)NC1=CC(=O)c2ccc(-c3nc(C(N)=O)cc4c3[nH]c3ccccc34)nc2C1=O` and test system N/4.2-NRKE transformed by the human ras^N gene, the measured CC50 is 0.22

Given the compound `CCCCCCCCOC(=O)c1cc2c([nH]c3ccccc32)c(-c2ccc3c(n2)C(=O)C(NC(C)=O)=CC3=O)n1` and test system N/4.2-NRKE transformed by the human ras^N gene, the measured CC50 is 9

---

What CC50 was measured for each of the following?
tested on: H/1.2 = ras^H Transformed NRKE Cells; test: cells; conditions: Rattus norvegicus, read-out: LC50 H/1.2

Given item `O=Cc1ccc2c(n1)C(=O)C(NC(=O)CCl)=CC2=O` , the value recorded as its CC50 is 3.4 µM

Given item `Cc1ccc2c(n1)C(=O)C(NC(=O)CCl)=CC2=O` , the value recorded as its CC50 is 2.8 µM

Given item `CCCC(=O)NC1=CC(=O)c2ccc(C)nc2C1=O` , the value recorded as its CC50 is 2.7 µM

Given item `CC(=O)NC1=CC(=O)c2ccc(C)nc2C1=O` , the value recorded as its CC50 is 5 µM

---

test system: normal rat kidney epithelial (NRKE) cells; details: rat, 5 days
READOUT: CC50 (µM)
Response body: numeric value in µM, unit text excluded.

Given item `CC(=O)NC1=CC(=O)c2ccc(C)nc2C1=O` , the value recorded as its CC50 is 4.6

---

assay: in vitro
READOUT: CC50 at 5 days (nM)
Response body: numeric value in nM, unit text excluded.

Given item COC(=O)c1nc(-c2ccc3c(n2)C(=O)C(N)=CC3=O)c2[nH]c3ccccc3c2c1C [Compound 55, lavendamycin methyl ester, reference compound] , the value recorded as its CC50 at 5 days is 100

FYI, the data here is from patent US6444684B1.
